experiment-summary: In vitro cell cytotoxicity by MTT assay
Type: cell-based
recorded-conditions: mouse; 1250.0 μg/ml; RAW cells; MTT; read-out: percent cytotoxicity
readout-name: cytotoxicity at 12 h, 1250 μg/ml

IN: Any idea what its cytotoxicity at 12 h, 1250 μg/ml is? The compound is CCCCC(=O)OC(C)CC1NCC(C)=C1C (stereo not shown)
OUT: 76%
